- Test system: Hek293T
- assay: Primary qHTS to identify gynecologic anti-cancer compounds using libraries of approved drugs and bioactive compounds (AID 1345084); further: nearly all actives have a fitted effect of over 55% in size
- condition_set: Gynecologic cancer cell panel viability, ATPlite luminescence, 48 h, control line for the selectivity index; series mostly up to 57.5 µM
Results filed as inconclusive are left out. The source made the active and inactive calls. The call rests on the fitted dose curve; in most records, active means well fitted cell-killing curve with a large enough effect; inconclusive means small, poorly fitted or top-dose-only effect, or effect the other way; inactive means flat fitted curve, though single readings scatter.
Labels: active, inactive

# molecule, discrete_label
records = [
    ("C/C1=C\\CCC2=C[C@@H](OC2=O)c2c(C)coc2C1", "inactive"),
    ("C/C=C/C=C/C=C/C(=O)OC1C=C(C=O)C(O)(C(=O)O)C2(C)CCCC(C)(C)C12 (centres undefined)", "inactive"),
    ("CC(O)/C=C/C1OC(=O)CC1Nc1ccc(C(=O)O)cc1 (centres undefined)", "inactive"),
    ("O=C(OC1C=C(CO)C2C(OC3OC(CO)C(O)C(O)C3O)OC=CC12)c1ccc(O)cc1 (centres undefined)", "inactive"),
    ("CC(=O)O[C@@H]1c2c(C)coc2C(=O)[C@@]23O[C@@H]2CC[C@H](C)[C@@]13C", "inactive"),
    ("CC(C)C(C(=O)N(C)C(C)C(N)=O)N(C)C(=O)C1CCCN1C(=O)/C=C/C=C/C(O)C(C)O (centres undefined)", "inactive"),
    ("OC1CCC(Nc2ncc3nc(Nc4c(F)cc(F)cc4F)n([C@H]4CCOC4)c3n2)CC1 (some centres undefined)", "inactive"),
    ("C=C(C(=O)OC)C1C(O)CC2(C)C(=O)CCC(O)(CO)C2C1O (centres undefined)", "inactive"),
    ("COc1ncc(Nc2ncc([C@@H](C)N3CCN(S(C)(=O)=O)CC3)cc2-c2nc(C)nc(N)n2)cc1F", "active"),
]
